# test_details: qHTS assay to identify small molecule inhibitors of chordoma cells - UCH-2 (AID 1259356)
# test_conditions: UCH-2 chordoma viability, CellTiter-Glo ATP luminescence, 48 h; series mostly up to 46.1 µM
Inconclusive results are not listed. Activity calls are given as the source filed them. Calls come from the whole dose curve; as a rule, active = well fitted cell-killing curve with a large enough effect; inconclusive = small, poorly fitted or top-dose-only effect; inactive = flat fitted curve, though single readings scatter.
A correct response names exactly one class from 1 (active), -1 (inactive)

compound	class_name
N[C@@H](Cc1ccc(O)c(O)c1)C(=O)O	-1
COc1ccc(C(=O)CC(=O)c2ccc(C(C)(C)C)cc2)cc1	-1
S=P(N1CC1)(N1CC1)N1CC1	-1
COC(c1ccccc1)(c1ccccc1)[C@H](Oc1nc(C)cc(C)n1)C(=O)O	-1
N=C(N)c1ccc(OCCCCCOc2ccc(C(=N)N)cc2)cc1	-1
CC1=CC(=O)c2ccccc2C1=O	-1

Request: Assay outcome for COC(=O)Nc1nc2ccc(C(=O)c3ccccc3)cc2[nH]1 : what was it?
Response: -1

Request: I would be grateful if you could indicate the recorded call for C[C@]12C=CC(=O)C=C1CC[C@@H]1[C@@H]2C(=O)C[C@@]2(C)[C@H]1CC[C@]2(O)C(=O)CO .
Response: -1

Request: # fetch the recorded call for CC(=O)Oc1ccccc1C(=O)Nc1ncc([N+](=O)[O-])s1 here
Response: -1

Request: Hi, sorry to bother you, what did the test record for Oc1c(Cl)cc(Cl)c2cccnc12 ?
Response: 1

Request: Which result was noted for this compound in the test: CCOc1cc(N)c(Cl)cc1C(=O)NCC1CN(Cc2ccc(F)cc2)CCO1 (stereo unspecified)
Response: -1
